- target-desc: Human recombinant HDAC4 (Homo sapiens (Human), UniProt P56524)
- Sequence (P56524 2-1084): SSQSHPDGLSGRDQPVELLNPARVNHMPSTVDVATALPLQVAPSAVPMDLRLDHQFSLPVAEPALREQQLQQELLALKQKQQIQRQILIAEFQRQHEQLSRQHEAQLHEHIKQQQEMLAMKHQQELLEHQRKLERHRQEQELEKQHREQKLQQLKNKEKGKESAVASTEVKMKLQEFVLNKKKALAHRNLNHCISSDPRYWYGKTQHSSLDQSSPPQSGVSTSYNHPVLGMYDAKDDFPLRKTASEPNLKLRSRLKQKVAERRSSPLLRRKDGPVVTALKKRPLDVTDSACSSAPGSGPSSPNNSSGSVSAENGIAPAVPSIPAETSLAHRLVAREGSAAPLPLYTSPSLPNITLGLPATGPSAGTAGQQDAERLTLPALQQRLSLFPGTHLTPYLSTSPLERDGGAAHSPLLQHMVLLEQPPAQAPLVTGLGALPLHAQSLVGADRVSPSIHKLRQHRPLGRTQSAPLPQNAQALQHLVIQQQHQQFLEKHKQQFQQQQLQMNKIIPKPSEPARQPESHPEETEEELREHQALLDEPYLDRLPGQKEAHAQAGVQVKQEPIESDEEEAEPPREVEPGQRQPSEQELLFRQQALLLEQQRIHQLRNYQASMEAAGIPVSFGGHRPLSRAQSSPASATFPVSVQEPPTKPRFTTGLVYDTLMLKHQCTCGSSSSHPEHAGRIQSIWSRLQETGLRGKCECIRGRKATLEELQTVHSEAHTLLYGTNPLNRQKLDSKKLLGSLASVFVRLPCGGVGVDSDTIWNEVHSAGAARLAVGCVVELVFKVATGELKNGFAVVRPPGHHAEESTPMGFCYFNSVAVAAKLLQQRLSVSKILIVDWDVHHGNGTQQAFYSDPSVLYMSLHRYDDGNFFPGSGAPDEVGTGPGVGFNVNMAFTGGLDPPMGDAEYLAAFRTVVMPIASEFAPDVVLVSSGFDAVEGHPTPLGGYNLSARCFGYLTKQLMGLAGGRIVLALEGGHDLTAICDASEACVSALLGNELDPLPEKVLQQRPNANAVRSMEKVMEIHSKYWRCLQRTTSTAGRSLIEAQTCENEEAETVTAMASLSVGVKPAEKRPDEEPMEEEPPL
- assay-protocol: Test 2: HDAC4 assay (fluorogenic substrate, 5 μM acetyl-Gly-Ala-Lys(ε-trifluoroacetyl)-AMC)
- Assay type: biochemical
- assay-setup: Test 2 (values without asterisk)
pIC50: −log10 of the molar value.
measure: pIC50

Recorded results for 5 compounds are shown here.
Cc1ccc(NS(=O)(=O)c2ccc(-c3noc(C(F)(F)F)n3)cc2)cc1 : 7.03
O=S(=O)(Nc1cccc(Cl)c1)c1ccc(-c2noc(C(F)(F)F)n2)cc1 : 6.10
CN(C)C1CCN(C(=O)c2ccc(-c3noc(C(F)(F)F)n3)cc2)CC1 : 5.92
CN(C)CCCNS(=O)(=O)c1ccc(-c2noc(C(F)(F)F)n2)cc1 : 6.52
C[C@H](CN1CCOCC1)NC(=O)c1ccc(-c2noc(C(F)(F)F)n2)cc1F : 6.42

a: COCCN(C)C(=O)c1ccc(-c2noc(C(F)(F)F)n2)cc1
b: O=C(NC1CCNCC1)c1ccc(-c2noc(C(F)(F)F)n2)cc1
Compare a and b and name the one whose reported pIC50 is smaller. Provide the label of your selected option as the answer.
a

P: CC(CNC(=O)c1ccc(-c2noc(C(F)(F)F)n2)cc1)N(C)C (stereo not drawn)
Q: CN1CCN(C(=O)c2ccc(-c3noc(C(F)(F)F)n3)cc2)CC1
Lab notebook, comparison: P versus Q , higher pIC50 goes to which? Provide the label of your selected option as the answer.
P
